biological target: JAK3/JAK1 (Homo sapiens, UniProt P23458+P52333); assay type: tissue-based, Blood
Sequence (P52333 whole entry): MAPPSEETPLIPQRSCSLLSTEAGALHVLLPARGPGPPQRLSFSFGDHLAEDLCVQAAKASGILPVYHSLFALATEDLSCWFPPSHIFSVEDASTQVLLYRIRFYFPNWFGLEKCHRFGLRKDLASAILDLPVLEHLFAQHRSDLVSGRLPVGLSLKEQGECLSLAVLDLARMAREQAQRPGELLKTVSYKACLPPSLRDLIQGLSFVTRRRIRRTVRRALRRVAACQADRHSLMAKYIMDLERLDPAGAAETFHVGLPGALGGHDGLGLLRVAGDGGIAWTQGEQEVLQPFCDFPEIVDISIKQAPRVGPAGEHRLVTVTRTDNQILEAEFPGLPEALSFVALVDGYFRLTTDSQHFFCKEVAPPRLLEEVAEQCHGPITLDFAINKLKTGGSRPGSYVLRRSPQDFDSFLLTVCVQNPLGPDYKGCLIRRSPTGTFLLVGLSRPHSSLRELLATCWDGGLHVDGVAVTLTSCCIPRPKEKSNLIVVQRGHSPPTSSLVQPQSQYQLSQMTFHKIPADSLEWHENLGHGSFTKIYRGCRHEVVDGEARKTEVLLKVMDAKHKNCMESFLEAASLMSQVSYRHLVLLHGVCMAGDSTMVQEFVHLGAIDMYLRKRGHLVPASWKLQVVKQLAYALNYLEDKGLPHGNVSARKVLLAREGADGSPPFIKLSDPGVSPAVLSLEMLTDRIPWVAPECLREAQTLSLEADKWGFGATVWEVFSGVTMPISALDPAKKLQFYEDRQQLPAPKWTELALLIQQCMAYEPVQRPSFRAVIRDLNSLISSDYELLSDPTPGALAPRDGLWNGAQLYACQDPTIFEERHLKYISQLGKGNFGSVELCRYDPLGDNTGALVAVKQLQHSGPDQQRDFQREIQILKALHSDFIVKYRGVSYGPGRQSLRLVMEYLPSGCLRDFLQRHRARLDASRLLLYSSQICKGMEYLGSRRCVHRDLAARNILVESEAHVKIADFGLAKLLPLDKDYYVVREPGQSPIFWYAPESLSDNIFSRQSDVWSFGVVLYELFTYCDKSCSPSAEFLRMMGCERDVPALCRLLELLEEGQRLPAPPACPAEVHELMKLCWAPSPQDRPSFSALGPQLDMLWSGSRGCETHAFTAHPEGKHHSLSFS
Sequence (P23458 whole entry): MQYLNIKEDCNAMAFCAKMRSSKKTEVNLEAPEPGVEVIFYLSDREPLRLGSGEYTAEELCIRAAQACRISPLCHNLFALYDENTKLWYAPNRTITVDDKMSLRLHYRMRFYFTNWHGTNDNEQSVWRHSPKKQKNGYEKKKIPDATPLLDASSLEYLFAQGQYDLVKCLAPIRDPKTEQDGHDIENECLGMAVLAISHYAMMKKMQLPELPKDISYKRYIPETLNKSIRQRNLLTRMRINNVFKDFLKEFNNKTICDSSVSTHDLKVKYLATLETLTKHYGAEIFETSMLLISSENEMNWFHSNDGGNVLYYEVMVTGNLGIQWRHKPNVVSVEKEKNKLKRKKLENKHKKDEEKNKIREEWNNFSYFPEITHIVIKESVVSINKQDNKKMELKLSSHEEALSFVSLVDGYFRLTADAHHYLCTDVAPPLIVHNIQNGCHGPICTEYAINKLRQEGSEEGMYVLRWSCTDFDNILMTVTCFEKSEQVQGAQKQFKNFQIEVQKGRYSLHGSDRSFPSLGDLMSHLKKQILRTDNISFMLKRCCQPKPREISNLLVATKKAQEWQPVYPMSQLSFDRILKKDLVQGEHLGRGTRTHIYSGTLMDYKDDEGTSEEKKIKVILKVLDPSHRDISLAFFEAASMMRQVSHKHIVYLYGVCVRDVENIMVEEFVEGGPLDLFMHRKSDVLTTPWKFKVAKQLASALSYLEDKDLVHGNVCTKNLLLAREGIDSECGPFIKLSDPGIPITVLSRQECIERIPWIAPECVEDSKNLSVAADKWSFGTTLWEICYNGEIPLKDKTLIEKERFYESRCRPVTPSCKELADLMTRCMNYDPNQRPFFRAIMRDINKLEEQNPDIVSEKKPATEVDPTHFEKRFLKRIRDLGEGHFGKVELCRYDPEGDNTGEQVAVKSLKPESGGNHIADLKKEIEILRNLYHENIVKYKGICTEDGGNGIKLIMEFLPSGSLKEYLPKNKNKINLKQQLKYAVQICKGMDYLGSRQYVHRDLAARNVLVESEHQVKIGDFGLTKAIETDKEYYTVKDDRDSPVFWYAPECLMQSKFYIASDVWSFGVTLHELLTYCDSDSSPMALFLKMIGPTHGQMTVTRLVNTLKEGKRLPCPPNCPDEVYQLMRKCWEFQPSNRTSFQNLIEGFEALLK
Description: Inhibition of JAK1/JAK3 in human blood assessed as reduction of IL-2 stimulated STAT phosphorylation preincubated for 30 mins followed by IL-2 stimulation for 15 mins by flow cytometry method
Would you mind telling me the reported pIC50 of each entry?
Numbers only, as −log10 of the molar value.

# MOLECULAR STRING, TEST TARGET, REPORTED METRIC, REPORTED RESULT
records = [
    ("NC(=O)c1cnc(Nc2ccc(O)cn2)cc1Nc1ccccc1Cl", "JAK3/JAK1 (Homo sapiens, UniProt P23458+P52333)", "pIC50", 6.28),
]

We next turn to a different compound, shown below.
Lookup: Complete the entry with pIC50 for `COc1cccc(Nc2cc(Nc3ccccc3Cl)c(C(N)=O)cn2)n1`
Found: 5.66
